Measured pKa accompanies every entry in the list below.
assay: Dissociation constant, pKa of the compound; assay type: physicochemical
Number, no unit, nothing else.

Mol smiles: NC1=N[C@](c2ccc(OC(F)F)cc2)(c2cccc(OCCF)c2)C2=NCC(F)(F)CN12
pKa: 6.5

[ask] Which measured pKa value corresponds to COc1cccc(-c2cccc([C@@]3(c4ccncc4)N=C(N)N4CC(F)(F)CN=C43)c2)c1F ?
[reply] 5.3

###

Documented concentration at 6 h across a set of compounds
assay: Plasma concentration in Sprague-Dawley rat at 10 mg/kg, po measured at 6 hrs by LC-MS/MS analysis; type: ADME, organism-based; set-up: dose 10 mg/kg, route oral
Include the unit after the number when you answer.

Mol smiles: NC1=N[C@@]2(c3cc(NC(=O)c4cnc(C(F)F)cn4)ccc3F)CO[C@H](CF)[C@H]2CS1
concentration at 6 h: 570 nM

[ask] I have this compound here, NC1=N[C@@]2(c3cc(NC(=O)c4cnc(CF)cn4)ccc3F)CO[C@H](C(F)(F)F)[C@H]2CS1 , and I need its recorded concentration at 6 h.
[reply] 229 nM

###

assay: Drug uptake in Sprague-Dawley rat brain at 10 mg/kg, po measured at 6 hrs by LC-MS/MS analysis; assay type: ADME, organism-based; parameters: dose 10 mg/kg, route oral; details: read-out: Drug uptake
Quantity name: concentration at 6 h (nM)
Record the value in nM, omitting the unit from your answer.

Mol smiles: NC1=N[C@@]2(c3cc(NC(=O)c4cnc(C(F)F)cn4)ccc3F)CO[C@H](CF)[C@H]2CS1
concentration at 6 h [nM]: 570

[ask] Could you share which concentration at 6 h value was measured for NC1=N[C@@]2(c3cc(NC(=O)c4cnc(CF)cn4)ccc3F)CO[C@H](C(F)(F)F)[C@H]2CS1 ?
[reply] 845

Source of measurements: ChEMBL document CHEMBL3259716
